Values from paper PMC9728165

Substrate: O=C(O)C(=O)Cc1ccccc1
Assay: purified protein
Type: biochemical, Halalkalibacterium halodurans
Conditions: reductive amination, 500 mM ammonia, 100 microM NADH, glycine-KCl-KOH pH 10.4, 25°C
Reported kcat values follow for various proteins
Report the value in s⁻¹ with no unit label.

Here are 3 proteins together with their reported answers.
PheDH (Halalkalibacterium halodurans C-125; E113D) (protein) MLTKTPTVTSTLDIFTEMAEHEQVLFCHDPSSGLRAIIAIHDTTLGPALGGCRMYPYQTTEDALRDVLRLSKGMTQKCAAADVDFGGGKAVIIGDPAKDKSANLFRAFGQFVDSLNGRFYTGTDMGTTMEDFVHALKETNGIVGIPKEYGGSGDSSVPTAKGVINSLKAISQVVLKDKQFSGRTYAIQGLGKVGFKVAEELLKEGNDLYVSDLQESLPLRLQQLGQRLGRHVEILHGDEIYEAAADVFVPCAQGAILNDATIARLKVKAIAGAANNQLEAERHGQMLHDQGIWFAPDYIVNSGGLIQVADELYGSNEKRVLSKTNAIYDTILEIFHQAERHHITTLQAANQLCERRIRERARRNNFFVNRIRPKWNLRK | 25.1237
PheDH (Halalkalibacterium halodurans C-125; N276L) (protein) MLTKTPTVTSTLDIFTEMAEHEQVLFCHDPSSGLRAIIAIHDTTLGPALGGCRMYPYQTTEDALRDVLRLSKGMTQKCAAADVDFGGGKAVIIGDPAKDKSANLFRAFGQFVESLNGRFYTGTDMGTTMEDFVHALKETNGIVGIPKEYGGSGDSSVPTAKGVINSLKAISQVVLKDKQFSGRTYAIQGLGKVGFKVAEELLKEGNDLYVSDLQESLPLRLQQLGQRLGRHVEILHGDEIYEAAADVFVPCAQGAILNDATIARLKVKAIAGAANLQLEAERHGQMLHDQGIWFAPDYIVNSGGLIQVADELYGSNEKRVLSKTNAIYDTILEIFHQAERHHITTLQAANQLCERRIRERARRNNFFVNRIRPKWNLRK | 31.321
PheDH (Halalkalibacterium halodurans C-125; E113D/N276L) (protein) MLTKTPTVTSTLDIFTEMAEHEQVLFCHDPSSGLRAIIAIHDTTLGPALGGCRMYPYQTTEDALRDVLRLSKGMTQKCAAADVDFGGGKAVIIGDPAKDKSANLFRAFGQFVDSLNGRFYTGTDMGTTMEDFVHALKETNGIVGIPKEYGGSGDSSVPTAKGVINSLKAISQVVLKDKQFSGRTYAIQGLGKVGFKVAEELLKEGNDLYVSDLQESLPLRLQQLGQRLGRHVEILHGDEIYEAAADVFVPCAQGAILNDATIARLKVKAIAGAANLQLEAERHGQMLHDQGIWFAPDYIVNSGGLIQVADELYGSNEKRVLSKTNAIYDTILEIFHQAERHHITTLQAANQLCERRIRERARRNNFFVNRIRPKWNLRK | 39.0852

Alright, here's another protein for you.
Ask | Look up kcat of PheDH (Halalkalibacterium halodurans C-125) (protein) MLTKTPTVTSTLDIFTEMAEHEQVLFCHDPSSGLRAIIAIHDTTLGPALGGCRMYPYQTTEDALRDVLRLSKGMTQKCAAADVDFGGGKAVIIGDPAKDKSANLFRAFGQFVESLNGRFYTGTDMGTTMEDFVHALKETNGIVGIPKEYGGSGDSSVPTAKGVINSLKAISQVVLKDKQFSGRTYAIQGLGKVGFKVAEELLKEGNDLYVSDLQESLPLRLQQLGQRLGRHVEILHGDEIYEAAADVFVPCAQGAILNDATIARLKVKAIAGAANNQLEAERHGQMLHDQGIWFAPDYIVNSGGLIQVADELYGSNEKRVLSKTNAIYDTILEIFHQAERHHITTLQAANQLCERRIRERARRNNFFVNRIRPKWNLRK and report it.
Reply | 10.296
